Answer each item with its documented growth AUC normalised to DMSO control.
tested on: P. vulgatus RND KO; assay: growth AUC normalised to DMSO control (median) (fraction of control); higher = less growth inhibition, active = hit call of the paper; settings: 20 µM
Where a name gives a salt, the structure may show the parent alone.

Enquiry: Quick one: growth AUC normalised to DMSO control of NC[C@H]1O[C@H](O[C@H]2[C@H](O[C@@H]3O[C@H](CO)[C@@H](O)[C@H]3O)[C@@H](O)[C@H](N)C[C@@H]2N)[C@H](N)[C@@H](O)[C@@H]1O [Ribostamycin sulfate salt] ?
Return: 0.988 (inactive)

Enquiry: Quick one: growth AUC normalised to DMSO control of CN(C)CCn1nnnc1SCC1=C(C(=O)O)N2C(=O)[C@@H](NC(=O)Cc3csc(N)n3)[C@H]2SC1 [Cefotiam hydrochloride] ?
Return: 0.0136 (active)

Enquiry: Quick one: growth AUC normalised to DMSO control of COc1cc(Cc2cnc(N)nc2N)cc(OC)c1OC ?
Return: 0.45 (inactive)

Enquiry: Quick one: growth AUC normalised to DMSO control of C[C@H](CCc1ccccc1)NC[C@H](O)c1ccc(O)c(C(N)=O)c1 ?
Return: 1.02 (inactive)

Enquiry: Quick one: growth AUC normalised to DMSO control of COc1cc(NS(=O)(=O)c2ccc(N)cc2)nc(OC)n1 ?
Return: 0.994 (inactive)

Enquiry: Quick one: growth AUC normalised to DMSO control of CC(C)(C(=O)O)c1ccc(C(O)CCCN2CCC(C(O)(c3ccccc3)c3ccccc3)CC2)cc1 (stereo unspecified) [Fexofenadine hydrochloride] ?
Return: 1.01 (inactive)

Enquiry: Quick one: growth AUC normalised to DMSO control of O=C1CC[C@@H](C(=O)N2CSC[C@H]2C(=O)O)N1 ?
Return: 0.991 (inactive)

Enquiry: Quick one: growth AUC normalised to DMSO control of C#C[C@]1(O)CC[C@H]2[C@@H]3CCC4=C(CCC(=O)C4)[C@H]3CC[C@@]21C ?
Return: 0.992 (inactive)

Enquiry: Quick one: growth AUC normalised to DMSO control of CCCNC(C)C(=O)Nc1c(C)csc1C(=O)OC (stereo unspecified) [Articaine hydrochloride] ?
Return: 1.04 (inactive)

Enquiry: Quick one: growth AUC normalised to DMSO control of COc1ccc2cc1Oc1ccc(cc1)C[C@H]1c3c(cc4c(c3Oc3cc5c(cc3OC)CCN(C)[C@@H]5C2)OCO4)CCN1C ?
Return: 0.999 (inactive)

Enquiry: Quick one: growth AUC normalised to DMSO control of CNCCC(Oc1ccccc1OC)c1ccccc1 (stereo unspecified) [Nisoxetine hydrochloride] ?
Return: 1.01 (inactive)

Enquiry: Quick one: growth AUC normalised to DMSO control of CCN(CC)CCNC(=O)c1cc(Cl)c(N)cc1OC [Metoclopramide monohydrochloride] ?
Return: 0.977 (inactive)

Enquiry: Quick one: growth AUC normalised to DMSO control of CCCCNC(=N)NC(=N)N ?
Return: 1.04 (inactive)

Enquiry: Quick one: growth AUC normalised to DMSO control of CCN(CC)CCNC(=O)c1cc(S(C)(=O)=O)ccc1OC [Tiapride hydrochloride] ?
Return: 0.961 (inactive)

Enquiry: Quick one: growth AUC normalised to DMSO control of Cc1ccc(O)c([C@H](CCN(C(C)C)C(C)C)c2ccccc2)c1 [Tolterodine tartrate] ?
Return: 1.01 (inactive)

Enquiry: Quick one: growth AUC normalised to DMSO control of CC[C@@H](CO)NCCN[C@@H](CC)CO [Ethambutol dihydrochloride] ?
Return: 1.01 (inactive)

* * *

system: Shigella flexneri; assay: growth AUC normalised to DMSO control (fraction of control); higher = less growth inhibition, active = hit call of the paper; settings: 20 µM
Structures can show the parent of a compound that is named as a salt.
# label = Criterion met if growth AUC normalised to DMSO control >= 1 else Criterion not met

Enquiry: Hi team, for CCOC(=O)[C@@](C)(N)Cc1ccc(O)c(O)c1 [Methyldopate hydrochloride] , is the recorded growth AUC normalised to DMSO control at or above 1?
Return: Criterion met

Enquiry: Hi team, for NCCc1cc[nH]n1 [Betazole hydrochloride] , is the recorded growth AUC normalised to DMSO control at or above 1?
Return: Criterion not met

Enquiry: Hi team, for c1ccc([C@H]2CN3CCSC3=N2)cc1 [Levamisole hydrochloride] , is the recorded growth AUC normalised to DMSO control at or above 1?
Return: Criterion not met

Enquiry: Hi team, for O=C(O)c1ccccc1Nc1cccc(C(F)(F)F)c1 [Flufenamic acid] , is the recorded growth AUC normalised to DMSO control at or above 1?
Return: Criterion not met

Enquiry: Hi team, for COc1cccc(N(C)C(=S)Oc2ccc3c(c2)CCCC3)n1 [Liranaftate] , is the recorded growth AUC normalised to DMSO control at or above 1?
Return: Criterion met

* * *

Answer each item with its documented growth AUC normalised to DMSO control.
tested on: Salmonella enterica typhimurium; test: growth AUC normalised to DMSO control (fraction of control); higher = less growth inhibition, active = hit call of the paper; conditions: 20 µM
Where a name gives a salt, the structure may show the parent alone.

Enquiry: Quick one: growth AUC normalised to DMSO control of CCOc1ccc(NC(C)=O)cc1 ?
Return: 0.992 (inactive)

Enquiry: Quick one: growth AUC normalised to DMSO control of COC(=O)C1=C(C)NC(C)=C(C(=O)OCCN(C)Cc2ccccc2)C1c1cccc([N+](=O)[O-])c1 (stereo not drawn) [Nicardipine hydrochloride] ?
Return: 1 (inactive)

Enquiry: Quick one: growth AUC normalised to DMSO control of CN1CCN(CCCN2c3ccccc3Sc3ccc(Cl)cc32)CC1 [Prochlorperazine dimaleate] ?
Return: 1.01 (inactive)

Enquiry: Quick one: growth AUC normalised to DMSO control of N[C@@H]1CONC1=O ?
Return: 1.03 (inactive)

Enquiry: Quick one: growth AUC normalised to DMSO control of CN(N=O)C(=O)N[C@H]1C(O)O[C@H](CO)[C@@H](O)[C@@H]1O (mixture of isomers) ?
Return: 0.659 (active)

Enquiry: Quick one: growth AUC normalised to DMSO control of CN(C)CCOC(=O)C(c1ccccc1)C1(O)CCCC1 (stereo not drawn) [Cyclopentolate hydrochloride] ?
Return: 1.02 (inactive)

Enquiry: Quick one: growth AUC normalised to DMSO control of CC(C)(C)NCC(O)c1cc(O)cc(O)c1 (stereo not drawn) [Terbutaline hemisulfate] ?
Return: 1.02 (inactive)

Enquiry: Quick one: growth AUC normalised to DMSO control of Cc1scc2c1N(C(=O)CN1CCN(C)CC1)c1ccccc1NC2=O [Telenzepine dihydrochloride] ?
Return: 1.02 (inactive)

* * *

tested on: S. enterica typhimurium WT; assay: growth AUC normalised to DMSO control (median) (fraction of control); higher = less growth inhibition, active = hit call of the paper; details: 20 µM
Where a name gives a salt, the structure may show the parent alone.
observable: growth AUC normalised to DMSO control

Enquiry: Quick one: growth AUC normalised to DMSO control of CC(CN(C)C)C(C)(O)Cc1ccc(Cl)cc1 (centres undefined) [Clobutinol hydrochloride] ?
Return: 1.01 (inactive)

Enquiry: Quick one: growth AUC normalised to DMSO control of Cc1ccsc1C(=CCCN1CCC[C@@H](C(=O)O)C1)c1sccc1C [Tiagabine hydrochloride] ?
Return: 1 (inactive)

Enquiry: Quick one: growth AUC normalised to DMSO control of CCOC(=O)Nc1ccc(NCc2ccc(F)cc2)nc1N [Flupirtine] ?
Return: 1 (inactive)

Enquiry: Quick one: growth AUC normalised to DMSO control of CC(=O)Nc1nnc(S(N)(=O)=O)s1 [Acetazolamide] ?
Return: 0.994 (inactive)

Enquiry: Quick one: growth AUC normalised to DMSO control of CC(NCCc1ccc(O)cc1)C(O)c1ccc(O)cc1 (centres undefined) [Ritodrine hydrochloride] ?
Return: 1 (inactive)

Enquiry: Quick one: growth AUC normalised to DMSO control of O=C1CC[C@@H](C(=O)N2CSC[C@H]2C(=O)O)N1 [Pidotimod] ?
Return: 1 (inactive)

Enquiry: Quick one: growth AUC normalised to DMSO control of CNC(C)CCC=C(C)C (centres undefined) [Isometheptene mucate] ?
Return: 1.01 (inactive)

Enquiry: Quick one: growth AUC normalised to DMSO control of CC(=O)OCC(=O)[C@@]12OC3(CCCC3)O[C@@H]1C[C@H]1[C@@H]3CCC4=CC(=O)C=C[C@]4(C)[C@@]3(F)[C@@H](O)C[C@@]12C [Amcinonide] ?
Return: 1.01 (inactive)

Enquiry: Quick one: growth AUC normalised to DMSO control of COc1ccc(/C=C/C(=O)Nc2ccccc2C(=O)O)cc1OC [Tranilast] ?
Return: 1.04 (inactive)

* * *

system: S. enterica typhimurium WT; assay: growth AUC normalised to DMSO control (median) (fraction of control); higher = less growth inhibition, active = hit call of the paper; conditions: 20 µM
Where a name gives a salt, the structure may show the parent alone.
Answer each item with its documented growth AUC normalised to DMSO control.
Just the number.

Enquiry: Quick one: growth AUC normalised to DMSO control of CC(C)/N=c1\cc2n(-c3ccc(Cl)cc3)c3ccccc3nc-2cc1Nc1ccc(Cl)cc1 ?
Return: 0.972

Enquiry: Quick one: growth AUC normalised to DMSO control of C[C@H]1C[C@@H]2[C@H]([C@@H](O)C[C@@]3(C)[C@H]2CC[C@]3(O)C(=O)CO)[C@@]2(C)C=CC(=O)C=C12 ?
Return: 1

Enquiry: Quick one: growth AUC normalised to DMSO control of COc1cc(N)c(Cl)cc1C(=O)NC1CCN(CCCOc2ccc(F)cc2)CC1OC (configuration not stated) [Cisapride] ?
Return: 1

Enquiry: Quick one: growth AUC normalised to DMSO control of CC(=O)Oc1cc(C(C)C)c(OCCN(C)C)cc1C [Moxisylyte hydrochoride] ?
Return: 1.01

Enquiry: Quick one: growth AUC normalised to DMSO control of Cc1ccccc1N1C(=O)c2cc(S(N)(=O)=O)c(Cl)cc2NC1C (configuration not stated) ?
Return: 1.02

Enquiry: Quick one: growth AUC normalised to DMSO control of CCCCOC(=O)c1ccccc1Nc1cccc(C(F)(F)F)c1 [Ufenamate] ?
Return: 0.998

Enquiry: Quick one: growth AUC normalised to DMSO control of CNCCC(Oc1ccc(C(F)(F)F)cc1)c1ccccc1 (configuration not stated) [Fluoxetine hydrochloride] ?
Return: 1.01

Enquiry: Quick one: growth AUC normalised to DMSO control of CCC[C@H](N[C@@H](C)C(=O)N1[C@H](C(=O)O)C[C@@H]2CCCC[C@@H]21)C(=O)OCC ?
Return: 1.01

Enquiry: Quick one: growth AUC normalised to DMSO control of CN1CC2c3ccccc3Oc3ccc(Cl)cc3C2C1 (configuration not stated) [Asenapine maleate] ?
Return: 0.973

Enquiry: Quick one: growth AUC normalised to DMSO control of CN(C)C(=N)NC(=N)N [Metformin hydrochloride] ?
Return: 1

Enquiry: Quick one: growth AUC normalised to DMSO control of C/C(O)=C(\C#N)C(=O)Nc1ccc(C(F)(F)F)cc1 [Teriflunomide] ?
Return: 1

Enquiry: Quick one: growth AUC normalised to DMSO control of NS(=O)(=O)c1cc2c(cc1Cl)NCNS2(=O)=O [Hydrochlorothiazide] ?
Return: 0.996

Enquiry: Quick one: growth AUC normalised to DMSO control of Clc1ccc(C(Cn2ccnc2)OCc2csc3c(Cl)cccc23)c(Cl)c1 (configuration not stated) [Sertaconazole nitrate] ?
Return: 1.01

Enquiry: Quick one: growth AUC normalised to DMSO control of CC(C)(C)NCC(O)c1cc(O)cc(O)c1 (configuration not stated) [Terbutaline hemisulfate] ?
Return: 1.01

Enquiry: Quick one: growth AUC normalised to DMSO control of CC(N/C(=N\C#N)Nc1ccncc1)C(C)(C)C (configuration not stated) [Pinacidil monohydrate] ?
Return: 1.01

Enquiry: Quick one: growth AUC normalised to DMSO control of Cc1cccc(C)c1OCC(C)N (configuration not stated) [Mexiletine hydrochloride] ?
Return: 1

Enquiry: Quick one: growth AUC normalised to DMSO control of CCc1cccc2c3c([nH]c12)C(CC)(CC(=O)O)OCC3 (configuration not stated) ?
Return: 1.02
